Entry source: ChEMBL document CHEMBL3988442

Organism: Homo sapiens
test.name: To identify inhibition of the IFN signalling (Jak-Stat) pathway via expression of an eGFP reporter gene under the control of an IFN-stimulated response element (ISRE) containing MxA promoter.
Assay type: functional
Design: scale not given: direction of the effect not stated beside the values
recorded.conditions: 30 µM
observable: Percent Effect (%)
Give bare numbers, in %.

CN(CCO)C(=O)c1coc(CN2CCN(c3ccccc3F)CC2)n1    11.4
Cc1ccoc1C(=O)NC1CCN(Cc2cccc3c2OCCO3)CC1    8.82
CS(=O)(=O)c1ccc(C(O)CN2CCC(c3ccn[nH]3)CC2)cc1 (centres undefined)    -11.8
CCC1=N[C@@]2(CC[C@@H]3CN(C(=O)NCc4ccccc4)C[C@@H]32)C(=O)N1C    6.81
CC(C)(C)NC(=O)C1CSCN1S(=O)(=O)c1ccc(F)cc1 (centres undefined)    21.8
Cc1nc(C)c(C(=O)N2CCC(Nc3cccnc3)CC2)s1    -5.72

Please look at the items below and tell me Percent Effect for each one, in order.
1. CC(O)CN1CCC(CNCc2ccccc2OC(F)(F)F)CC1 (centres undefined)
2. O=C1CC(c2ccncc2)C2(CCN(C(=O)c3ccc[nH]3)CC2)N1 (centres undefined)

## Result
1: 2.5; 2: 14.6

---

assayed.system: AMP-activated protein kinase, AMPK (Homo sapiens) (UniProt P54646+O43741+P54619+Q9UGJ0+Q9Y478+Q13131+Q9UGI9)
test.name: AMP-dependent Kinase enzyme assay. An in vitro enzyme assay that detects ADP turnover that is directly proportional to AMPK activity. This uses naive AMPK that is activated during the assay with MK-8722
Assay type: functional
Design: scale not given: direction of the effect not stated beside the values
recorded.conditions: 30 µM
observable: Percent Effect (%)
Give bare numbers, in %.

Below, each entry is followed by its recorded Percent Effect result.
Cn1cc(Cl)cc1C(=O)N1CCCN(Cc2cccs2)CC1    7.51
Cc1ccc(N(CC(=O)c2ccc(Br)cc2)C2=NCCCCC2)cc1    5.34
CCn1ccnc1CN1CCCN(C(=O)c2sccc2C#N)CC1    1.18
Cc1nc(C2CCCN2CC(=O)NCCc2ccsc2)no1 (configuration not stated)    -10.4
CO[C@H]1CCN(c2ncccn2)[C@H]1Cc1ccccc1    -1.1
CCOC(=O)[C@]12CCCN(Cc3nccs3)C[C@H]1CN(CCN(C)C)C2    1.26
CN(C)C(=O)COC[C@]12COC[C@H]1CN(Cc1ccoc1)C2    -3.89
CCc1nnc(CN2CCN(C(=O)c3ccccn3)CC2)o1    1.99
Cc1cc(=O)[nH]c(SCC(=O)N(C)CC2Cc3ccccc3CN2C)n1 (configuration not stated)    -2.17
Cc1cnn(CC2CCCN2Cc2coc(-c3ccccc3)n2)c1 (configuration not stated)    -9.12

I have 8 compounds here; please give me Percent Effect for each one.
1. CC(C)CN1CCC(NC(=O)c2ccc(F)cc2I)CC1
2. O=C1c2cnc(N3CCOCC3)nc2CN1c1ccc2c(c1)OCO2
3. COc1ccc(CNCc2c(C)nn(C)c2N2CCOCC2)cc1
4. Cn1cnc(-c2cc(C(=O)N3CCOCC3)c3ccccn23)c1
5. CN(Cc1cc(-c2ccccc2)no1)C1CCCN(c2cccnn2)C1 (configuration not stated)
6. O[C@]1(c2ccccn2)CC[C@@H]2CN(Cc3cccc4ncccc34)C[C@@H]21
7. Cc1ccc(-c2nc(CN3CCc4nn(C)c(=O)cc4C3)co2)cc1
8. NCC1Cn2nnc(-c3cccc(F)c3)c2CO1 (configuration not stated)

## Result
[-16, 1.53, -11.5, 17.9, 0.498, 11.8, -173, 2.11]

Provide Percent Effect for all items below, preserving their order.
1. Cc1cc(C)n(C2CN(CC(=O)N(C)Cc3ccc(C)o3)C2)n1
2. CCc1nnsc1C(=O)N1CCCN(Cc2cnn(C)c2)CC1

## Result
17.1
-0.0421

Go through the items and report each one's Percent Effect.
1. COC(=O)C1CCN(c2cncc(-n3nc(C)cc3C)n2)CC1
2. O=C1O[C@@H]2CN(Cc3ccccc3)C[C@@H]2N1CCCN1CCOCC1

## Result
4.1
-0.894

---

assayed.system: Tyrosyl-tRNA synthetase, putative (Trypanosoma cruzi (strain CL Brener)) (UniProt Q4DSP6)
Sequence (Q4DSP6 as listed by the source): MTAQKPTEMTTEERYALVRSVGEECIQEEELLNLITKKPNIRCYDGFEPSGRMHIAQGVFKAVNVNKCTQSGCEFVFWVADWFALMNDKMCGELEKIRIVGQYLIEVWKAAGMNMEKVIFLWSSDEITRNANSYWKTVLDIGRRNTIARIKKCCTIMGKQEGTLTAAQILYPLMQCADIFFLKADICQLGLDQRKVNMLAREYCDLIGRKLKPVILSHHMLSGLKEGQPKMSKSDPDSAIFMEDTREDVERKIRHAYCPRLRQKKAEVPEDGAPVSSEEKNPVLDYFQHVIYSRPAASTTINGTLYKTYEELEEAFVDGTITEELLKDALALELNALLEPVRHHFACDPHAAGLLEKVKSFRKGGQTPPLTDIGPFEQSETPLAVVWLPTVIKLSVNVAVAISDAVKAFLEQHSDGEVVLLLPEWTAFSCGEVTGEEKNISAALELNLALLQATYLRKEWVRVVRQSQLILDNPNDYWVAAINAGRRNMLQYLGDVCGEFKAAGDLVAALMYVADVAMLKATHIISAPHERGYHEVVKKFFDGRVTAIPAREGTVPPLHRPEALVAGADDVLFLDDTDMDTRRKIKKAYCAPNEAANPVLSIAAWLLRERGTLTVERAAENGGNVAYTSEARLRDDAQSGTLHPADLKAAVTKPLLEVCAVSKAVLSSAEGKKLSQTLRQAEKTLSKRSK
test.name: Trypanosoma cruzi tyrosyl tRNA synthetase (TcYRS) _High Tyrosine SOP; note: in the data most compounds retested in dose-response had high values
Format: functional
Set-up: scale not given: direction of the effect not stated beside the values
recorded.conditions: 30 µM
observable: Percent Effect (%)
Give bare numbers, in %.

O=S(=O)(C1CC1)N1CCOCC2(CCN(c3ccccn3)C2)C1 (stereo not given)    -6.35
O=C1CCc2cc(-c3csc(CCN4CCCC4=O)n3)ccc2N1    15.5
Cc1ncnc2c1CCN(Cc1ccccn1)CC2    3.12
CC(C)CCCNC(=O)Nc1ccc(F)c(C(N)=O)c1    6.86

# return Percent Effect for each item in the list
1. O=C(c1nn(-c2ccccc2F)cc1O)N1CCCC1
2. CC(C)N1CCOCC2(CN(Cc3nccs3)CCO2)C1 (stereo not given)
3. CN(CC1CC1)C(=O)CN(Cc1cccc(O)c1)C1CCC(O)CC1 (stereo not given)
4. O=C(NCCOc1ncc(Cl)cc1Cl)c1ccncc1F
5. O=C(CSC1=NS(=O)(=O)c2cc(F)ccc2N1)Nc1cccc(Cl)c1
6. COc1cccc2c1ccn2CCC(=O)NCCCC(=O)O
7. O=C(NCc1cn2c(n1)CN(CC1CCOCC1)CC2)C1CCC1

## Result
[-6.93, 9.52, 0, 5.94, -10.6, 5.29, 2.97]

List reported Percent Effect for each of these compounds:
1. COc1ccc(Nc2nc3c(C)nn(C)c3c(=O)n2C)c(OC)c1
2. CCS(=O)(=O)NC(C(=O)NC)c1ccc(F)c(F)c1 (stereo not given)
3. Cn1cc(C(=O)NC[C@@H]2OC[C@H]3CN(S(C)(=O)=O)CC[C@H]32)cn1
4. CC(C)NC(=O)[C@@H](NC(=O)N1CCN(c2ccc(Cl)cc2)CC1)C(C)C
5. Cc1cccc(CCC(=O)N2CCOCC2c2c(C)n[nH]c2C)c1 (stereo not given)
6. COCc1nc(CNC2CCSCC2)no1
7. COC1COC2(CCN(Cc3ccccc3Cl)CC2)C1 (stereo not given)

## Result
1. 8.6
2. 9.9
3. 5.21
4. 0.532
5. -3.23
6. 3.72
7. -2.12

---

assayed.system: Sialic acid-binding Ig-like lectin 9 (Homo sapiens) (UniProt Q9Y336)
Sequence (Q9Y336 whole entry): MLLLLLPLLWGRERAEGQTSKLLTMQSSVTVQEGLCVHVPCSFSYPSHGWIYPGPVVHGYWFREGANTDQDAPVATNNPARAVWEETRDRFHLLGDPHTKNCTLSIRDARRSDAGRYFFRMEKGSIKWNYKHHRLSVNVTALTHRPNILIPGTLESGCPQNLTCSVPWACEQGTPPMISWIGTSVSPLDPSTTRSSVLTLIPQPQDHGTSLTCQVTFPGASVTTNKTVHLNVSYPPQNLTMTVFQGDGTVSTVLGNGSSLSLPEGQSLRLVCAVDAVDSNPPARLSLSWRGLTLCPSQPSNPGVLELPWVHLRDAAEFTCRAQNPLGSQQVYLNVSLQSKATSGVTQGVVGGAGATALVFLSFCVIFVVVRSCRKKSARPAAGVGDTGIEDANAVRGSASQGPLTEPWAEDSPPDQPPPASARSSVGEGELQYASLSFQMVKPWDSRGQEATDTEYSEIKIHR
test.name: Hs-Siglec9 ALPHAscreen SOP 20170721
Design: scale not given: direction of the effect not stated beside the values
recorded.conditions: 10 µM
What Percent Effect was measured for each of the following?

Consider the worked cases shown below.
CC(C)c1nnc(NC(=O)NCc2ccc(CO)c(F)c2)s1    -0.945%
CC(C)c1noc(CCC(=O)NCC2CCOC2)n1 (configuration not stated)    -0.749%
CCC(CC)c1cc(CNC(=O)N2CCOCC2CC)on1 (configuration not stated)    2.45%

Each of the following entries comes with a recorded value; kindly state Percent Effect for each.
1. CCOc1ccnc(N2CCN(C(=O)c3cc(Cl)c[nH]3)CC2)n1
2. O=C(NCCNc1ncccn1)C1CCN(C(=O)C2CC2)CC1
3. Cc1cnn(C2CCCN(C(=O)Cc3ccc(-n4cccn4)cc3)C2)c1 (configuration not stated)

## Result
1: 5.17%; 2: -1.97%; 3: 3.46%

Value sought for every listed molecule: Percent Effect.
1. CCN(CC)C1CCN(C(=O)NCc2nncn2CC)CC1
2. CC(=O)c1ccccc1C(=O)NCC1(CO)CC1

## Result
["-2.94%", "7.79%"]

For every listed record, write down its Percent Effect.
1. O=C(CCc1ccccc1)N1CCn2cc(CN3CCCC3)nc2C1
2. Cc1nccn1-c1cc(CNC(=O)CCC2CCCO2)ccn1 (configuration not stated)

## Result
1. 2.78%
2. -7.85%

Please state, for each entry, its recorded Percent Effect.
1. CNc1cc(C)nc(C2CN(Cc3ccc(C)nc3)CCO2)c1 (configuration not stated)
2. CCN(C(=O)Nc1cccnc1OC)C1CC1

## Result
1. -3.85%
2. 15.2%

---

assayed.system: AMP-activated protein kinase, AMPK (Homo sapiens) (UniProt P54646+O43741+P54619+Q9UGJ0+Q9Y478+Q13131+Q9UGI9)
test.name: AMP-dependent Kinase enzyme assay. An in vitro enzyme assay that detects ADP turnover that is directly proportional to AMPK activity. This uses naive AMPK that is activated during the assay with MK-8722
Type: functional
Parameters: scale not given: direction of the effect not stated beside the values
recorded.conditions: 30 µM
Would you kindly list Percent Effect for each of these compounds?
Numbers only, in %.

# count of solved cases: 6
COc1ccc(C2=CCN(C(=O)C3CCN(C)C(=O)C3)CC2)cc1 (stereo not drawn)    2.43
COc1ccccc1CC(=O)N1CCC(NCc2cccnc2)CC1    -2.91
CC(C)c1nn(C)c(N(C)C)c1CNCc1cccc(CN(C)C)c1    -8.3
Cc1noc(C)c1C(=O)NCc1ccnc(OCC(F)(F)F)c1    -1.27
Cc1nc(C)n(CC2CCCN2Cc2nc(C3CC3)no2)n1 (stereo not drawn)    -3.31
CCc1nc(N)sc1C(=O)N1CCCC(CCc2ccccc2C)C1 (stereo not drawn)    -6.81

Quick batch: Percent Effect for everything below.
1. Cc1cccc(CS(=O)(=O)NCC(O)Cc2ccccc2)c1 (stereo not drawn)
2. NC(=O)NCC(=O)N1C[C@H]2CC[C@@H]1CN(C1Cc3ccccc3C1)C2
3. Cc1cnn(C2CCCN(C(=O)c3cn4cccnc4n3)C2)c1 (stereo not drawn)
4. CC(C)CN1C(=O)C2(CCN(Cc3nccs3)C2)c2ccccc21 (stereo not drawn)
5. O=C(NCc1ccco1)[C@@]12CCO[C@@H]1CCN(CCN1CCCC1)C2

## Result
[-2.41, -25.8, -11.5, -2.39, -5.27]

# batch: return Percent Effect for each of the 7 compounds below
1. Cn1ncc2c1NC(=O)CC2c1ccccc1Cl (stereo not drawn)
2. Cn1ccnc1CN1CCN(CC(O)c2cccc(F)c2)CC1 (stereo not drawn)
3. CC(=O)N1CCn2c(C(=O)N(C)C)cnc2C1
4. CNc1cc2c(nn1)CCN(C(=O)c1ccoc1)C2
5. O=C(NCCN1CCc2ccccc2C1)c1scnc1Cl
6. CCOc1ccnc(N2CCN(C(=O)c3cc(Cl)c[nH]3)CC2)n1
7. Cc1noc(C)c1CCC(=O)N1CCCN(Cc2cscn2)CC1

## Result
1: 5.36; 2: -1.07; 3: 9.01; 4: 7.77; 5: -2.29; 6: 0.626; 7: -5.71
